SYSTEM UNDER TEST: Inhibitor of nuclear factor kappa-B kinase subunit beta (Homo sapiens, UniProt O14920)
Sequence (O14920 whole entry): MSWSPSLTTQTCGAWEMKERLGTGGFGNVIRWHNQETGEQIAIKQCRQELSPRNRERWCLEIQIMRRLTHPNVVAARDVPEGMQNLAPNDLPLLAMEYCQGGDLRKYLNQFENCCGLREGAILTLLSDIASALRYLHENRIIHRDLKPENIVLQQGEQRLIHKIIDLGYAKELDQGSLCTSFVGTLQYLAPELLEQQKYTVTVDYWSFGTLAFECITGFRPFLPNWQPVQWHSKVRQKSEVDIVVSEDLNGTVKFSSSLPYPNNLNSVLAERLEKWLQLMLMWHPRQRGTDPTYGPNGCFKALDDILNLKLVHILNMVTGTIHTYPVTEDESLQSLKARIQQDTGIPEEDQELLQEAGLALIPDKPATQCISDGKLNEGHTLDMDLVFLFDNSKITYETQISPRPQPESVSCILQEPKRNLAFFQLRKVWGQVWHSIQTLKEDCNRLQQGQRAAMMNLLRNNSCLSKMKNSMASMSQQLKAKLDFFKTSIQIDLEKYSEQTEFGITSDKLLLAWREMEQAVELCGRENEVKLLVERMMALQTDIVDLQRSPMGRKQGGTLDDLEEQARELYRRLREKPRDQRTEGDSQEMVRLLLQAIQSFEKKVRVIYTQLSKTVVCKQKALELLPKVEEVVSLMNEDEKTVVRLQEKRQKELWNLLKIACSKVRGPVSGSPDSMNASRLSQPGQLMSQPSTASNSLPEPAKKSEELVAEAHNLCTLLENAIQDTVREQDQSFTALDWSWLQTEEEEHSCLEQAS
MEASUREMENT DESCRIPTION: Inhibition of recombinant IKKbeta (unknown origin) using ulight-IkappaomegaBalpha as substrate after 1 hr by LANCE ultra TR-FRET assay
pIC50: −log10 of the molar value.
OBSERVATION TYPE: pIC50

[[record]]
smiles_code = "COc1nc(-c2ccc(C(=O)O)cc2)cnc1-c1ccc(O)c(C23CC4CC(CC(C4)C2)C3)c1"
system_under_test = "Inhibitor of nuclear factor kappa-B kinase subunit beta (Homo sapiens, UniProt O14920)"
recorded_result = 5.11

[[record]]
smiles_code = "Cc1cc(O)c(C23CC4CC(CC(C4)C2)C3)cc1-c1ncc(-c2ccc(C(=O)O)cc2)s1"
system_under_test = "Inhibitor of nuclear factor kappa-B kinase subunit beta (Homo sapiens, UniProt O14920)"
recorded_result = 5.32

[[record]]
smiles_code = "O=C(O)c1ccc(-c2cnc(-c3ccc(O)c(C45CC6CC(CC(C6)C4)C5)c3)s2)cc1"
system_under_test = "Inhibitor of nuclear factor kappa-B kinase subunit beta (Homo sapiens, UniProt O14920)"
recorded_result = 5.47

[[record]]
smiles_code = "COCCOCOc1ccc(C(=O)/C=C/c2ccc(C(=O)O)cc2)cc1C12CC3CC(CC(C3)C1)C2"
system_under_test = "Inhibitor of nuclear factor kappa-B kinase subunit beta (Homo sapiens, UniProt O14920)"
recorded_result = 4.93

[[record]]
smiles_code = "COCCOCOc1ccc(-c2ncc(-c3ccc(C(=O)O)cc3)s2)cc1C12CC3CC(CC(C3)C1)C2"
system_under_test = "Inhibitor of nuclear factor kappa-B kinase subunit beta (Homo sapiens, UniProt O14920)"
recorded_result = 5.29

[[record]]
smiles_code = "Cc1cc(O)c(C23CC4CC(CC(C4)C2)C3)cc1-c1ccc2cc(C(=O)O)ccc2c1Cl"
system_under_test = "Inhibitor of nuclear factor kappa-B kinase subunit beta (Homo sapiens, UniProt O14920)"
recorded_result = 5.32

[[record]]
smiles_code = "COCCOCOc1cc(C)c(-c2ccc3cc(C(=O)O)ccc3c2Cl)cc1C12CC3CC(CC(C3)C1)C2"
system_under_test = "Inhibitor of nuclear factor kappa-B kinase subunit beta (Homo sapiens, UniProt O14920)"
recorded_result = 5.15

[[record]]
smiles_code = "COCCOCOc1cc(C)c(-c2ncc(-c3ccc(C(=O)O)cc3)s2)cc1C12CC3CC(CC(C3)C1)C2"
system_under_test = "Inhibitor of nuclear factor kappa-B kinase subunit beta (Homo sapiens, UniProt O14920)"
recorded_result = 5.35


* * *

SYSTEM UNDER TEST: UniProt:P10276
Sequence (whole entry): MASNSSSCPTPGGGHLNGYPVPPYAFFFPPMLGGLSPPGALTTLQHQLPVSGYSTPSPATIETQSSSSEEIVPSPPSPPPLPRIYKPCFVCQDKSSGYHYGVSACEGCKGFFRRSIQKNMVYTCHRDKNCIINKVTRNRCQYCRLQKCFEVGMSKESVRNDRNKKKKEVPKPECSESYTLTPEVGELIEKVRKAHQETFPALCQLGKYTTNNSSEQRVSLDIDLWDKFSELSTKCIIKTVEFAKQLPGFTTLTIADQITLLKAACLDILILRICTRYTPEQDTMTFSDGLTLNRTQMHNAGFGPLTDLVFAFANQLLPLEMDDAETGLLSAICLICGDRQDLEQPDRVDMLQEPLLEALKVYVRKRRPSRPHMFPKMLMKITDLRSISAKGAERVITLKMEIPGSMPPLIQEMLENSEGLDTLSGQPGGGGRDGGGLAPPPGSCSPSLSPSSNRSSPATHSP
MEASUREMENT DESCRIPTION: Antagonist activity at Gal4-fused RARalpha (unknown origin) transfected in HEK293 cells assessed as ATRA-induced transcriptional activity at 4 uM by luciferase/beta-galactosidase reporter gene assay relative to ATRA-treated control
Type: cell-based
Design: scale not given: the % may be the effect or the level left
Below, each entry is listed with its recorded Activity.
OBSERVATION TYPE: Activity (%)

[[record]]
smiles_code = "COCCOCOc1cc(C)c(-c2ncc(/C=C/C(=O)O)s2)cc1C12CC3CC(CC(C3)C1)C2"
recorded_result = 75.3

[[record]]
smiles_code = "COc1nc(-c2ccc(C(=O)O)cc2)cnc1-c1ccc(O)c(C23CC4CC(CC(C4)C2)C3)c1"
recorded_result = 95.4

[[record]]
smiles_code = "COCCOCOc1cc(C)c(-c2ccc(CC(=O)O)cc2Cl)cc1C12CC3CC(CC(C3)C1)C2"
recorded_result = 74.1

[[record]]
smiles_code = "COCCOCOc1cc(C)c(-c2ccc3cc(C(=O)O)ccc3c2Cl)cc1C12CC3CC(CC(C3)C1)C2"
recorded_result = 82.7

[[record]]
smiles_code = "COCCOCOc1cc(C)c(-c2ncc(-c3ccc(C(=O)O)cc3)s2)cc1C12CC3CC(CC(C3)C1)C2"
recorded_result = 61.6

[[record]]
smiles_code = "O=C(O)c1ccc(-c2cnc(-c3ccc(O)c(C45CC6CC(CC(C6)C4)C5)c3)s2)cc1"
recorded_result = 66.2

[[record]]
smiles_code = "COCCOCOc1cc(C)c(-c2ncc(/C=C/C(=O)O)nc2OC)cc1C12CC3CC(CC(C3)C1)C2"
recorded_result = 99.5

[[record]]
smiles_code = "COc1nc(/C=C/C(=O)O)cnc1-c1cc(C23CC4CC(CC(C4)C2)C3)c(O)cc1C"
recorded_result = 89

[[record]]
smiles_code = "COCCOCOc1ccc(-c2ncc(/C=C/C(=O)O)s2)cc1C12CC3CC(CC(C3)C1)C2"
recorded_result = 94.2

[[record]]
smiles_code = "COCCOCOc1ccc(-c2ncc(-c3ccc(C(=O)O)cc3)s2)cc1C12CC3CC(CC(C3)C1)C2"
recorded_result = 92.4

[[record]]
smiles_code = "COc1nc(/C=C/C(=O)O)cnc1-c1ccc(O)c(C23CC4CC(CC(C4)C2)C3)c1"
recorded_result = 93.2

[[record]]
smiles_code = "COCCOCOc1ccc(-c2ncc(-c3ccc(C(=O)O)cc3)nc2OC)cc1C12CC3CC(CC(C3)C1)C2"
recorded_result = 109

[[record]]
smiles_code = "CC(=O)NCCCOc1cc(/C=C/C(=O)O)ccc1-c1cc(C23CC4CC(CC(C4)C2)C3)c(O)cc1C"
recorded_result = 70

[[record]]
smiles_code = "Cc1cc(O)c(C23CC4CC(CC(C4)C2)C3)cc1-c1ncc(/C=C/C(=O)O)s1"
recorded_result = 87.3

[[record]]
smiles_code = "Cc1cc(O)c(C23CC4CC(CC(C4)C2)C3)cc1-c1ccc(CC(=O)O)cc1Cl"
recorded_result = 79.7

[[record]]
smiles_code = "Cc1cc(O)c(C23CC4CC(CC(C4)C2)C3)cc1-c1ncc(-c2ccc(C(=O)O)cc2)s1"
recorded_result = 33.2

[[record]]
smiles_code = "COCCOCOc1cc(C)c(-c2ccc(/C=C/C(=O)O)cc2Cl)cc1C12CC3CC(CC(C3)C1)C2"
recorded_result = 61.5

[[record]]
smiles_code = "COCCOCOc1ccc(-c2ncc(/C=C/C(=O)O)nc2OC)cc1C12CC3CC(CC(C3)C1)C2"
recorded_result = 78.7

[[record]]
smiles_code = "Cc1cc(O)c(C23CC4CC(CC(C4)C2)C3)cc1-c1ccc(/C=C/C(=O)O)cc1Cl"
recorded_result = 67.1

[[record]]
smiles_code = "Cc1cc(O)c(C23CC4CC(CC(C4)C2)C3)cc1-c1ccc2cc(C(=O)O)ccc2c1Cl"
recorded_result = 90

[[record]]
smiles_code = "CC1(C)CC=C(C#Cc2ccccc2)c2cc(/C=C/c3ccc(C(=O)O)cc3)ccc21"
recorded_result = 7.1

[[record]]
smiles_code = "O=C(O)/C=C/c1cnc(-c2ccc(O)c(C34CC5CC(CC(C5)C3)C4)c2)s1"
recorded_result = 92.4


* * *

# fold change (FC) per entry
SYSTEM UNDER TEST: Retinoic acid receptor alpha (Homo sapiens) (UniProt P10276)
Sequence (whole entry): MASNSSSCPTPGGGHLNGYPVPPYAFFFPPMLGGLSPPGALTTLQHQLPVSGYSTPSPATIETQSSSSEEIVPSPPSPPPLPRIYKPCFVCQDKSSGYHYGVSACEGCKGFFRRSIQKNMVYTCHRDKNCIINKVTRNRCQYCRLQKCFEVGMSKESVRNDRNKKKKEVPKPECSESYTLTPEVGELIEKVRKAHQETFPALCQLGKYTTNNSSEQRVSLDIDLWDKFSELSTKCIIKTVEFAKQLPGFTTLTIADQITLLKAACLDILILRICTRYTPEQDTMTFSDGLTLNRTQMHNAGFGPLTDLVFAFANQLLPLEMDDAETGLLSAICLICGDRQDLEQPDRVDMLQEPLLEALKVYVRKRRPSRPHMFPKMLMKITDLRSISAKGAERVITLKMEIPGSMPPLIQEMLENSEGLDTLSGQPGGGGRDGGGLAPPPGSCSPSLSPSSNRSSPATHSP
MEASUREMENT DESCRIPTION: Agonist activity at Gal4-fused RARalpha (unknown origin) transfected in HEK293 cells assessed as induction of transcriptional activity at 4 uM after 6 hrs by luciferase/beta-galactosidase reporter gene assay relative to control
Assay type: cell-based
OBSERVATION TYPE: fold change (FC)

[[record]]
smiles_code = "COCCOCOc1cc(C)c(-c2ccc(/C=C/C(=O)O)cc2Cl)cc1C12CC3CC(CC(C3)C1)C2"
observation_type = "fold change (FC)"
recorded_result = 1.8

[[record]]
smiles_code = "O=C(O)/C=C/c1cnc(-c2ccc(O)c(C34CC5CC(CC(C5)C3)C4)c2)s1"
observation_type = "fold change (FC)"
recorded_result = 1.1

[[record]]
smiles_code = "COCCOCOc1cc(C)c(-c2ncc(/C=C/C(=O)O)nc2OC)cc1C12CC3CC(CC(C3)C1)C2"
observation_type = "fold change (FC)"
recorded_result = 0.8

[[record]]
smiles_code = "COCCOCOc1cc(C)c(-c2ncc(/C=C/C(=O)O)s2)cc1C12CC3CC(CC(C3)C1)C2"
observation_type = "fold change (FC)"
recorded_result = 1.9

[[record]]
smiles_code = "COCCOCOc1ccc(-c2ncc(/C=C/C(=O)O)s2)cc1C12CC3CC(CC(C3)C1)C2"
observation_type = "fold change (FC)"
recorded_result = 1

[[record]]
smiles_code = "COc1nc(-c2ccc(C(=O)O)cc2)cnc1-c1ccc(O)c(C23CC4CC(CC(C4)C2)C3)c1"
observation_type = "fold change (FC)"
recorded_result = 1.9

[[record]]
smiles_code = "COCCOCOc1cc(C)c(-c2ccc(CC(=O)O)cc2Cl)cc1C12CC3CC(CC(C3)C1)C2"
observation_type = "fold change (FC)"
recorded_result = 1.3

[[record]]
smiles_code = "CC1(C)CC=C(C#Cc2ccccc2)c2cc(/C=C/c3ccc(C(=O)O)cc3)ccc21"
observation_type = "fold change (FC)"
recorded_result = 1.3

[[record]]
smiles_code = "Cc1cc(O)c(C23CC4CC(CC(C4)C2)C3)cc1-c1ncc(/C=C/C(=O)O)s1"
observation_type = "fold change (FC)"
recorded_result = 1


Recorded values, source ChEMBL document CHEMBL3112476.
